Recorded pKd, one value per entry.
Biological target: T1, recombinant human CD70 (AviTag, polyhistidine tag and chicken tenascin trimerization domain fused to the … (chicken; human, UniProt P10039 110-139, limits assumed)
T1 construct: domain: trimerization domain; Expressed in Expi293, purified by IMAC and SEC; Copies 3 is inferred from the trimerization domain; not shown: AviTag; polyhistidine tag
T1 sequence: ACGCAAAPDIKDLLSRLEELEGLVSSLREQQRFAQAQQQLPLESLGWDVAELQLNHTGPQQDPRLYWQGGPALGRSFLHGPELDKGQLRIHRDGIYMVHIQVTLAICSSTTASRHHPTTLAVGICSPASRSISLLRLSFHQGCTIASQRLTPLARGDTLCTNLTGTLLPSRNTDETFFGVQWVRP
Experiment: SPR (Biacore 8K, 37 C): CD70 captured via anti-AviTag antibody on C1 chip, scFv-Fc as analyte; 1:1 Langmuir fit
Schema: pKd number; meaning minus log10 of the concentration expressed in molar units.

I am curious: what pKd value has been reported for P12F02 anti-CD70 scFv-Fc fusion (Fc fusion, scFv-Fc expressed in Expi293; not shown: part of the hinge and Fc from a modified human IgG2) EVQLLESGGGLVQPGGSLRLSCAASGFTFSSYAMSWVRQAPGKGLEWVSTISGTGGTTYYADSVKGRFTISRDNSKNTLYLQMNSLRAEDTAVYYCAKVRAGIDPTASDVWGQGTLVTVSSGGGGSGGGGSGGGGSGGGGSELQSVLTQPPSASGTPGQRVTISCSGSTSNIGRNYVYWYQQLPGTAPKLLIYRTNQRPSGVPDRFSGSKSGTSASLAISGLRSEDEADYYCAAWDDSLSGRVFGTGTKLTVL ?
8.24

Others:
Can you look up the measured pKd of 10H10 anti-CD70 scFv-Fc fusion (Fc fusion, scFv-Fc expressed in Expi293; not shown: part of the hinge and Fc from a modified human IgG2) EVQLVESGGGLVQPGGSLRLSCAVSGFTFSNHNIHWVRQAPGKGLEWISYISRSSSTIYYADSVKGRFTISRDNAKNSLYLQMNSLRDEDTAVYYCARDHAQWYGMDVWGQGTTVTVSSGGGGSGGGGSGGGGSGGGGSDIQMTQSPSSVSASVGDRVTITCRASQGISSWLAWYQQKPGKAPKVLIYAASSLQSGVPSRFSGSGSGTDFTLTISSLQPEDFATYYCQQAFSFPFTFGPGTKVDIK for me?
7.16

Can you share its pKd? I mean this binder: P08F08 anti-CD70 scFv-Fc fusion (Fc fusion, scFv-Fc expressed in Expi293; not shown: part of the hinge and Fc from a modified human IgG2) EVQLVQSGAEVKKPGESLKISCKGSGYGFTSYWIGWVRQMPGKGLEWMGIIHPDDSDTKYSPSFQGQVTISADKSISTAYLQWSSLKASDTAMYYCASSYLRGLWGGYFDYWGQGTLVTVSSGGGGSGGGGSGGGGSGGGGSELQSVLTQPPSASGTPGQRVTISCSGSSSNIGSNYVNWYQQLPGTAPKLLIYGDYQRPSGVPDRFSGSKSGTSASLAISGLRSEDEADYYCATRDDSLSGSVVFGTGTKLTVL
7.97

Which pKd value belongs to 10A1 anti-CD70 scFv-Fc fusion (Fc fusion, scFv-Fc expressed in Expi293; not shown: part of the hinge and Fc from a modified human IgG2) QVQLQESGPGLVKPSETLSLTCTVSGGSISYYYWTWIRQPPGKGLEWIGHIYYSGSTNYNPSLKSRVTISIDTSKNLFSLKLSSVTAADTAVYYCARAEGSLDAFDFWGQGTMVTVSSGGGGSGGGGSGGGGSGGGGSDIQMTQSPSTLSASVGDRVTITCRASQSISTWLAWYQQKPGKAPKVLIYKASSLESGVPSRFSGSGSGTEFILTINSLQPDDFASYYCQQYKSYSHTFGQGTKLEIK ?
8.89

Fill in: pKd of 12D6 anti-CD70 scFv-Fc fusion (Fc fusion, scFv-Fc expressed in Expi293; not shown: part of the hinge and Fc from a modified human IgG2) QVQLQESGPGLVKPSQTLSLTCTVSGGSISSDAYYWSWIRQHPGKGLEWIGYMYYSGITYYNPSLKSRVTISVDTSKNQFSLKLSSVTAADTAVYYCARDFGWYFDLWGRGTLVTVSSGGGGSGGGGSGGGGSGGGGSDIQMTQSPSSLSASVGDRVTITCRASQDISNYLAWYQQKPGKVPKLLIYAASTLHSGVPSRFSGSGSGTDFTLTISSLQPDDFAAYYCQKYNSAPRTFGQGTKVEIK is ___
7.56

Name the reported pKd value associated with the binder 11C1 anti-CD70 scFv-Fc fusion (Fc fusion, scFv-Fc expressed in Expi293; not shown: part of the hinge and Fc from a modified human IgG2) QVQLQESGPGLVKPSETLSLNCTVSGGSISYYYWTWIRQPPGKGLEWIGHVIYSGTTNYNPSLKSRVTISVDTSKNQFSLKLNSVTAADTAVYYCVRAEGSLDAFDLWGQGTMVTVSSGGGGSGGGGSGGGGSGGGGSDIQMTQSPSILSASVGDRVTITCRASQSVSSWLAWYQQKPGKAPKVLIYKASSLESGVPSRFSGTGSGTEFTLTISSLQSDDFATYYCQQYNTYSHTFGQGTKLEIK
9.10

Looking for the measured pKd of 9E10 anti-CD70 scFv-Fc fusion (Fc fusion, scFv-Fc expressed in Expi293; not shown: part of the hinge and Fc from a modified human IgG2) QVQLVQSGAEVTKPGASVKVSCKASGYTFTSHYIYWVRQAPGQGLEWMGWINPNSGGTNYAQKFQDRVTMARDTSISTAYMELSRLRSDDTAVYYCAKDRKREYYYNFGMDVWGQGTTVTVSAGGGGSGGGGSGGGGSGGGGSDIQMTQSPSSLSASVGDRVILTCQASQDISNYLHWYQQKPGKAPKLLIYDASDLETGVPSRFSGSGSGADFTFTISNLQPEDFATYYCQQYDHLPITFGQGTRLEIK , can you help?
8.59
